Overview of reported log10 Ki across a group of compounds:
Assay overview: Inhibition of Proteus vulgaris CCM 1956 urease by berthelot colorimetric assay
Note: values are log10 of Ki expressed in µM.

Task: For "O=C(CNC(=O)OCc1ccccc1)NCP(=O)(O)CO" , write its log10 Ki.
Result: 0.29

Task: For "CN(C)CC(=O)NCP(=O)(O)CO" , write its log10 Ki.
Result: -0.37

Task: For O=C(NCP(O)(=S)CO)OCc1ccccc1 (configuration not stated) , write its log10 Ki.
Result: 2.16

Task: For "CNCP(C)(=O)O" , write its log10 Ki.
Result: 1.43

Task: For "CNCP(=O)(O)CO" , write its log10 Ki.
Result: -0.44

Task: For "NCP(=O)(O)CO" , write its log10 Ki.
Result: 1.44
